Data credit: ChEMBL document CHEMBL4190268

- test.system: Substance-P receptor (Homo sapiens, UniProt P25103)
- Sequence (P25103 whole entry): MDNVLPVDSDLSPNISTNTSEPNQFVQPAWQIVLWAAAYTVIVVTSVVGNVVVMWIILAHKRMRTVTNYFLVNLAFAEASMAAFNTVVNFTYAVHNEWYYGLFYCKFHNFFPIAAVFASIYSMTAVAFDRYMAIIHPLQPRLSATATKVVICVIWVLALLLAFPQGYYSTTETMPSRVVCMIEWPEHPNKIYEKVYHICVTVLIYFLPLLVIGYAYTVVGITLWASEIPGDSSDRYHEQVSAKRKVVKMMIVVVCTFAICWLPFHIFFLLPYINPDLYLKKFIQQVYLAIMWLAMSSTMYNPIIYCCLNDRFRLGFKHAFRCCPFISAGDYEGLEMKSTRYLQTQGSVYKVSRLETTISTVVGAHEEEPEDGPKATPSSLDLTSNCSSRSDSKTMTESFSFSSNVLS
- method: Antagonist activity at His6-tagged NK1 receptor (unknown origin) expressed in CHO cells assessed as inhibition of substance-P-induced IP1 accumulation at 5 x 10^-5M preincubated for 10 mins followed by substance-P addition measured after 30 mins by HTRF-FRET assay relative to control
- Type: functional, cell-based

{"compound": "Cc1ccc([S+]([O-])C2=C(c3ccccn3)OC(N)=C(C#N)C2c2ccc(Cl)cc2)cc1 (racemic)", "inhibition [%]": 15.8}
{"compound": "COc1ccc(C2C(C#N)=C(N)OC(c3ccccn3)=C2[S+]([O-])c2ccccc2)cc1 (racemic)", "inhibition [%]": 11.1}
{"compound": "Cc1ccc([S+]([O-])C2=C(c3ccccn3)OC(N)=C(C#N)C2c2ccc([N+](=O)[O-])cc2)cc1 (racemic)", "inhibition [%]": 28.9}
{"compound": "N#CC1=C(N)OC(c2ccccn2)=C(S(=O)(=O)c2ccccc2)C1c1ccc([N+](=O)[O-])cc1 (racemic)", "inhibition [%]": 68.5}
{"compound": "N#CC1=C(N)OC(c2ccccn2)=C([S+]([O-])c2ccc([N+](=O)[O-])cc2)C1c1ccccc1 (racemic)", "inhibition [%]": 56.6}
{"compound": "Cc1ccc(SC2=C(c3ccccn3)OC(NC(=O)C(F)(F)F)=C(C#N)[C@H]2c2ccccc2)cc1", "inhibition [%]": 36.8}
{"compound": "Cc1ccc([S@@+]([O-])C2=C(c3ccccn3)OC(N)=C(C#N)[C@@H]2c2ccc(F)cc2)cc1", "inhibition [%]": 11.2}
{"compound": "Cc1ccc(SC2=C(c3ccccn3)OC(NC(=O)C(F)(F)F)=C(C#N)[C@H]2c2ccc([N+](=O)[O-])cc2)cc1", "inhibition [%]": 23.8}

----------
Items are presented alongside their recorded inhibition.
- test.system: Substance-P receptor (Homo sapiens, UniProt P25103)
- method: Antagonist activity at His6-tagged NK1 receptor (unknown origin) expressed in CHO cells assessed as inhibition of substance-P-induced IP1 accumulation at 10^-5 M preincubated for 10 mins followed by substance-P addition measured after 30 mins by HTRF-FRET assay relative to control
- Format: functional, cell-based
property.measured: inhibition (%)

{"compound": "Cc1ccc([S@@+]([O-])C2=C(c3ccccn3)OC(N)=C(C#N)[C@@H]2c2ccccc2)cc1", "number": 28.8}
{"compound": "Cc1ccc([S@+]([O-])C2=C(c3ccccn3)OC(N)=C(C#N)[C@H]2c2ccccc2)cc1", "number": 42}
{"compound": "Cc1ccc([S@@+]([O-])C2=C(c3ccccn3)OC(N)=C(C#N)[C@@H]2c2ccc([N+](=O)[O-])cc2)cc1", "number": 18.5}
{"compound": "Cc1ccc([S+]([O-])C2=C(c3ccccn3)OC(N)=C(C#N)C2c2ccc(Cl)cc2)cc1 (racemic)", "number": 13.9}
{"compound": "COc1ccc([C@H]2C(C#N)=C(N)OC(c3ccccn3)=C2[S@+]([O-])c2ccc(C)cc2)cc1", "number": -4.43}
{"compound": "CC(=O)NC1=C(C#N)[C@H](c2ccc(C)cc2)C([S@+]([O-])c2ccc(C)cc2)=C(c2ccccn2)O1", "number": 21.4}
{"compound": "Cc1ccc([C@@H]2C(C#N)=C(N)OC(c3ccccn3)=C2[S@@+]([O-])c2ccc(C)cc2)cc1", "number": 37}
{"compound": "COc1ccc([C@@H]2C(C#N)=C(N)OC(c3ccccn3)=C2[S@@+]([O-])c2ccc(C)cc2)cc1", "number": 34.5}
{"compound": "Cc1ccc(C2C(C#N)=C(N)OC(c3ccccn3)=C2[S+]([O-])c2ccc(C)cc2)cc1 (racemic)", "number": 32.8}
{"compound": "Cc1ccc([S@+]([O-])C2=C(c3ccccn3)OC(N)=C(C#N)[C@H]2c2ccc([N+](=O)[O-])cc2)cc1", "number": 43.3}
{"compound": "Cc1ccc([S@+]([O-])C2=C(c3ccccn3)OC(N)=C(C#N)[C@H]2c2ccc(Cl)cc2)cc1", "number": 30}
{"compound": "Cc1ccc(SC2=C(c3ccccn3)OC(NC(=O)C(F)(F)F)=C(C#N)[C@H]2c2ccccc2)cc1", "number": 6.93}
{"compound": "N#CC1=C(N)OC(c2ccccn2)=C([S+]([O-])c2ccccc2)C1c1ccc([N+](=O)[O-])cc1 (racemic)", "number": 33.5}
{"compound": "Cc1ccc([S@+]([O-])C2=C(c3ccccn3)OC(N)=C(C#N)[C@H]2c2cc(C(F)(F)F)cc(C(F)(F)F)c2)cc1", "number": 30}
{"compound": "CC(=O)NC1=C(C#N)[C@@H](c2ccc(C)cc2)C([S@@+]([O-])c2ccc(C)cc2)=C(c2ccccn2)O1", "number": 33.3}
{"compound": "Cc1ccc([S+]([O-])C2=C(c3ccccn3)OC(N)=C(C#N)C2c2ccc([N+](=O)[O-])cc2)cc1 (racemic)", "number": 30}
